# target: Peroxisome proliferator-activated receptor gamma (Homo sapiens)
# test-name: Activity against PPAR gamma in human by FRET assay
pEC50: −log10 of the molar value.
Short version: pEC50 at least 7 is T, less is F.

>>> category_label("CCC(C(=O)O)C1CCc2cc(OCCc3nc(-c4ccc5c(c4)OCO5)oc3C)ccc21 (centres undefined)")
"T"
>>> category_label("CC[C@H](C(=O)O)[C@@H]1CCc2cc(OCCc3nc(-c4ccc(F)cc4)oc3C)ccc21")
"T"
>>> category_label("CCCCc1ccc(-c2nc(CCOc3ccc4c(c3)CCC4C(CC)C(=O)O)c(C)o2)cc1 (centres undefined)")
"T"
>>> category_label("CCC(C(=O)O)C1CCc2cc(OCCc3nc(-c4ccco4)oc3C)ccc21 (centres undefined)")
"F"
>>> category_label("CCc1ccc(-c2nc(CCOc3ccc4c(c3)CCC4C(CC)C(=O)O)c(C)o2)cc1 (centres undefined)")
"T"
>>> category_label("CCC(C(=O)O)C1CCc2cc(OCCc3nc(-c4ccc(F)cc4)oc3C)ccc21 (stereo in doubt; 54)")
"T"
>>> category_label("CCC(C(=O)O)C1CCc2cc(OCCc3nc(-c4ccccc4)oc3C)c(-c3ccc(Cl)cc3)cc21 (centres undefined)")
"F"
>>> category_label("CCC(C(=O)O)C1CCc2cc(OCCc3nc(-c4ccc(C(C)C)cc4)oc3C)ccc21 (centres undefined)")
"T"
>>> category_label("CCC(C(=O)O)C1CCc2cc(OCCc3nc(-c4ccc(C)c(C)c4)oc3C)ccc21 (centres undefined)")
"T"
>>> category_label("CCC(C(=O)O)C1CCc2cc(OCCn3ncc4ccccc4c3=O)ccc21 (centres undefined)")
"F"
>>> category_label("Cc1oc(-c2ccccc2)nc1CCOc1ccc2c(c1)CCC2C(CC(F)(F)F)C(=O)O (centres undefined)")
"F"
>>> category_label("CCC(C(=O)O)C1CCc2cc(OCCc3nc(-c4ccccc4)oc3-c3ccccc3)ccc21 (centres undefined)")
"F"
>>> category_label("CCCC(C(=O)O)C1CCc2cc(OCCc3nc(-c4ccccc4)oc3C)ccc21 (centres undefined)")
"T"
>>> category_label("CCC(C(=O)O)C1CCc2cc(OCCc3nc(Cc4ccc(F)cc4)oc3C)ccc21 (centres undefined)")
"F"
>>> category_label("CCC(C(=O)O)C1CCc2cc(OCc3ccc(-c4nc(-c5ccccc5)oc4C)cc3)ccc21 (centres undefined)")
"F"
>>> category_label("CCc1oc(-c2ccccc2)nc1CCOc1ccc2c(c1)CCC2C(CC)C(=O)O (centres undefined)")
"T"
>>> category_label("CC[C@H](C(=O)O)[C@@H]1CCc2cc(OCCc3nc(-c4ccccc4)oc3C)ccc21")
"T"
>>> category_label("CCC(C(=O)O)C1CCc2cc(OCCc3nc(-c4cc(C(F)(F)F)cc(C(F)(F)F)c4)oc3C)ccc21 (centres undefined)")
"F"
>>> category_label("CCC(C(=O)O)C1CCc2cc(OCCCc3nc(-c4ccccc4)oc3C(F)(F)F)ccc21 (centres undefined)")
"F"
>>> category_label("CCC(C(=O)O)C1CCc2cc(OCCc3nc(-c4ccc(Cl)cc4)oc3C)ccc21 (centres undefined)")
"F"
>>> category_label("CCC(C(=O)O)C1CCc2cc(OCCc3nc(-c4ccccc4)oc3C)ccc21 (centres undefined)")
"T"
>>> category_label("CCC(C(=O)O)C1CCc2cc(OCCn3nc(-c4ccccc4)cc3C)ccc21 (centres undefined)")
"F"
>>> category_label("CCC(C(=O)O)C1CCc2cc(OCCc3nc(-c4cc5ccccc5s4)oc3C)ccc21 (centres undefined)")
"T"

* * *

# test-name: AUC in male db/db mice administered at 3 mg/kg, po
# Format: ADME, organism-based
# Parameters: dose 3 mg/kg, route oral
# experimental-context: mouse, plasma
measured-parameter: AUC (ng·h/mL)

>>> numeric_value("CC[C@H](C(=O)O)[C@@H]1CCc2cc(OCCc3nc(-c4ccc(C)cc4)oc3C)ccc21")
11600

* * *

# target: Peroxisome proliferator-activated receptor alpha (Homo sapiens)
# Sequence (Q07869 whole entry): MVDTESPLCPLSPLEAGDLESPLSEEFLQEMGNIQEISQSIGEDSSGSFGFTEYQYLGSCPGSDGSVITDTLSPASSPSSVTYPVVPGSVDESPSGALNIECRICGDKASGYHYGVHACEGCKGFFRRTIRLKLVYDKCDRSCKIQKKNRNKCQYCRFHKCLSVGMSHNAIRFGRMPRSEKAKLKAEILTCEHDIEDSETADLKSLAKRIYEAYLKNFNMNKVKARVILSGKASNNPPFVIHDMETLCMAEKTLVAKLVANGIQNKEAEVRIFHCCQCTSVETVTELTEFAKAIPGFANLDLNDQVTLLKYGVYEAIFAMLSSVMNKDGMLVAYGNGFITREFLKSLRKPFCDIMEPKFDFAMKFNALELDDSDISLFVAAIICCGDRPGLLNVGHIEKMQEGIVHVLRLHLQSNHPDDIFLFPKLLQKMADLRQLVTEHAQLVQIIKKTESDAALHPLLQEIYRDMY
# test-name: Activity against PPAR alpha in human by FRET assay
measured-parameter: EC50 (nM)

>>> numeric_value("CCC(C(=O)O)C1CCc2cc(OCCc3nc(COc4ccc(Cl)cc4)oc3C)ccc21 (stereo not given)")
53
>>> numeric_value("CCC(C(=O)O)C1CCc2cc(OCCc3nc(COc4ccccc4)oc3C)ccc21 (stereo not given)")
61
>>> numeric_value("CCC(C(=O)O)C1CCc2cc(OCCc3nc(-c4ccc(Cl)c(Cl)c4)oc3C)ccc21 (stereo in doubt; 66)")
91
>>> numeric_value("CCC(C(=O)O)C1CCc2cc(OCc3nc(-c4ccccc4)oc3C(F)(F)F)ccc21 (stereo not given)")
1000
>>> numeric_value("CC[C@H](C(=O)O)[C@H]1CCc2cc(OCCc3nc(-c4ccccc4)oc3C)ccc21")
26
>>> numeric_value("CCC(C(=O)O)C1CCc2cc(OCCc3nc(-c4ccc(C(C)(C)C)cc4)oc3C)ccc21 (stereo not given)")
240
>>> numeric_value("CCC(C(=O)O)C1CCc2cc(OCCc3nc(-c4cc(C)on4)oc3C)ccc21 (stereo not given)")
827
>>> numeric_value("CC[C@H](C(=O)O)[C@@H]1CCc2cc(OCCc3nc(-c4ccc(C)cc4)oc3C)ccc21")
78

* * *

# target: Peroxisome proliferator-activated receptor alpha (Homo sapiens)
# test-name: Activity against PPAR alpha in human by FRET assay
pEC50: −log10 of the molar value.
measured-parameter: pEC50

>>> numeric_value("CC[C@@H](C(=O)O)[C@H]1CCc2cc(OCCc3nc(-c4ccc(F)cc4)oc3C)ccc21")
6.06
>>> numeric_value("CCC(C(=O)O)C1CCc2cc(OCCc3nc(-c4cc5ccccc5s4)oc3C)ccc21 (centres undefined)")
6.54
>>> numeric_value("CCC(C(=O)O)C1CCc2cc(OCCc3nc(-c4ccc(Cl)cc4Cl)oc3C)ccc21 (centres undefined)")
5.26
>>> numeric_value("CCC(C(=O)O)C1CCc2cc(OCCc3nc(-c4ccc(C)c(C)c4)oc3C)ccc21 (centres undefined)")
7.42
>>> numeric_value("CCC(C(=O)O)C1CCc2cc(OCCc3nc(-c4ccc(-c5ccccc5)cc4)oc3C)ccc21 (centres undefined)")
5.48

* * *

# target: Peroxisome proliferator-activated receptor alpha (Homo sapiens, UniProt Q07869)
# test-name: Activity against PPAR alpha in human by FRET assay
pEC50: −log10 of the molar value.
Hi, to clarify the labels: Criterion met covers pEC50 from 6 upward, Criterion not met covers anything below 6.

>>> category_label("Cc1oc(-c2ccccc2)nc1CCOc1ccc2c(c1)CCC2C(CC(F)(F)F)C(=O)O (centres undefined)")
"Criterion not met"
>>> category_label("CC[C@@H](C(=O)O)[C@@H]1CCc2cc(OCCc3nc(-c4ccccc4)oc3C)ccc21")
"Criterion met"
>>> category_label("CCC(C(=O)O)C1CCc2cc(OCCc3nc(-c4ccc(F)c(C)c4)oc3C)ccc21 (centres undefined)")
"Criterion met"
>>> category_label("CCC(C(=O)O)C1CCc2cc(OCCc3nc(-c4ccccc4)oc3C)c(Cl)cc21 (centres undefined)")
"Criterion met"
>>> category_label("CCC(C(=O)O)C1CCc2cc(OCCCc3nc(-c4ccccc4)oc3C(F)(F)F)ccc21 (centres undefined)")
"Criterion met"
>>> category_label("Cc1oc(-c2ccccc2)nc1CCOc1ccc2c(c1)CCC2C(C(=O)O)C(=O)O (centres undefined)")
"Criterion not met"

* * *

# target: Peroxisome proliferator-activated receptor gamma (Homo sapiens, UniProt P37231)
# Sequence (P37231 whole entry): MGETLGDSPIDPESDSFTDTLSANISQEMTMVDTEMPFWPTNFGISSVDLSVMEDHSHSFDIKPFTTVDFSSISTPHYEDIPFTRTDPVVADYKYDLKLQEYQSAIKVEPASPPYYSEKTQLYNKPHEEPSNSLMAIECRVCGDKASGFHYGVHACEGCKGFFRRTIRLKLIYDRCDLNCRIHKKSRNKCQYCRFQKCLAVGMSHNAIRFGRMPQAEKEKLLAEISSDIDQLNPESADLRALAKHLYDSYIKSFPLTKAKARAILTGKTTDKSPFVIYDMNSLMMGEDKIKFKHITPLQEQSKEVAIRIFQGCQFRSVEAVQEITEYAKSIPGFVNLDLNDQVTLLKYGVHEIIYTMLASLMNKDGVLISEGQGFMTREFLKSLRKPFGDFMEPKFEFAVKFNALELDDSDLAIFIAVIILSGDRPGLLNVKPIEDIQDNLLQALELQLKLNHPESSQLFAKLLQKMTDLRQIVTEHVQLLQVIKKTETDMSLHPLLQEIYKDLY
# test-name: Activity against PPAR gamma in human by FRET assay
Categories are assigned from the measured EC50 using these intervals: 1 (below 40 nM), 2 (40 nM to below 200 nM), 3 (200 nM or more)

>>> category_label("Cc1oc(-c2ccccc2)nc1CCOc1ccc2c(c1)CCC2C(CCCc1ccccc1)C(=O)O (stereo not drawn)")
3
>>> category_label("CC[C@H](C(=O)O)[C@@H]1CCc2cc(OCCc3nc(-c4ccc(Cl)c(Cl)c4)oc3C)ccc21")
2
>>> category_label("CCC(C(=O)O)C1CCc2cc(OCCc3nc(-c4ccc(C)cc4)oc3C)ccc21 (stereo not drawn)")
2
>>> category_label("CCC(C(=O)O)C1CCc2cc(OCCc3nc(-c4cccc(C)c4)oc3C)ccc21 (stereo not drawn)")
1
>>> category_label("CC[C@@H](C(=O)O)[C@H]1CCc2cc(OCCc3nc(-c4ccc(F)cc4)oc3C)ccc21")
3
>>> category_label("Cc1oc(-c2ccccc2)nc1CCOc1ccc2c(c1)CCC2C(C(=O)O)C1CC1 (stereo not drawn)")
2
>>> category_label("CCC(C(=O)O)C1CCc2cc(OCCc3nc(-c4ccc(C(C)(C)C)cc4)oc3C)ccc21 (stereo not drawn)")
1
>>> category_label("CCC(C(=O)O)C1CCc2cc(OCCc3nc(-c4ccc(Cl)c(Cl)c4)oc3C)ccc21 (stereo in doubt)")
2
>>> category_label("CCC(C(=O)O)C1CCc2cc(OCCc3nc(-c4ccccc4)oc3C(C)C)ccc21 (stereo not drawn)")
3
>>> category_label("CCC(C(=O)O)C1CCc2cc(OCCc3nc(-c4ccccc4)oc3C)c(-c3ccccc3)cc21 (stereo not drawn)")
3
>>> category_label("CCC(C(=O)O)C1CCc2cc(OCCc3nc(-c4cccc(F)c4)oc3C)ccc21 (stereo not drawn)")
2
>>> category_label("CCC(C(=O)O)C1CCc2cc(OCCc3nc(-c4ccc(-c5ccccc5)cc4)oc3C)ccc21 (stereo not drawn)")
2
>>> category_label("CC[C@H](C(=O)O)[C@H]1CCc2cc(OCCc3nc(-c4ccc(C)cc4)oc3C)ccc21")
2
>>> category_label("CCC(C(=O)O)C1CCc2cc(OCCc3nc(C4CCCCC4)oc3C)ccc21 (stereo not drawn)")
2
>>> category_label("CCC(C(=O)O)C1CCc2cc(OCCc3nc(-c4c(F)cccc4F)oc3C)ccc21 (stereo not drawn)")
3
>>> category_label("Cc1oc(-c2ccccc2)nc1CCOc1ccc2c(c1)CCC2C(C)(C)C(=O)O (stereo not drawn)")
3
>>> category_label("CCC(C(=O)O)C1CCc2cc(OCCc3nc(COc4ccccc4)oc3C)ccc21 (stereo not drawn)")
2
>>> category_label("CC[C@H](C(=O)O)[C@@H]1CCc2cc(OCCc3nc(-c4ccc(C)cc4)oc3C)ccc21")
1
>>> category_label("CCC(C(=O)O)C1CCc2cc(OCCc3nc(-c4ccccc4)oc3C)c(Br)cc21 (stereo not drawn)")
3
>>> category_label("CCC(C(=O)O)C1CCc2cc(OCCc3nc(-c4cccc(OC)c4)oc3C)ccc21 (stereo not drawn)")
1
>>> category_label("CCC(C(=O)O)C1CCc2cc(OCCc3nc(-c4ccc(OC)c(OC)c4)oc3C)ccc21 (stereo not drawn)")
2
>>> category_label("CCC(C(=O)O)C1CCc2cc(OCCc3nc(-c4ccc(OC)cc4)oc3C)ccc21 (stereo not drawn)")
2
>>> category_label("CCC(C(=O)O)C1CCc2cc(OCCNC(=O)Nc3ccc(C)cc3)ccc21 (stereo not drawn)")
3
>>> category_label("Cc1oc(-c2ccccc2)nc1CCOc1ccc2c(c1)CCC2C(C)C(=O)O (stereo not drawn)")
2
>>> category_label("CCC(C(=O)O)C1CCc2cc(OCCn3nc(-c4ccccc4)c4ccccc4c3=O)ccc21 (stereo not drawn)")
3
>>> category_label("CCC(C(=O)O)C1CCc2cc(OCCc3nc(-c4cc(C)on4)oc3C)ccc21 (stereo not drawn)")
3
>>> category_label("CC[C@H](C(=O)O)[C@H]1CCc2cc(OCCc3nc(-c4ccccc4)oc3C)ccc21")
1
>>> category_label("CCC(C(=O)O)C1CCc2cc(OCc3nc(-c4ccccc4)oc3C(F)(F)F)ccc21 (stereo not drawn)")
3
>>> category_label("CCC(C(=O)O)C1CCc2cc(OCCc3noc(-c4ccccc4)n3)ccc21 (stereo not drawn)")
3
>>> category_label("CC[C@@H](C(=O)O)[C@H]1CCc2cc(OCCc3nc(-c4ccc(C)cc4)oc3C)ccc21")
3
>>> category_label("CCC(C(=O)O)C1CCc2cc(OCCc3c(-c4ccccc4)noc3C)ccc21 (stereo not drawn)")
3
>>> category_label("CCC(C(=O)O)C1CCc2cc(OCCc3nc(-c4ccccc4)oc3C)c(Cl)cc21 (stereo not drawn)")
3
>>> category_label("CCC(C(=O)O)C1CCc2cc(OCCc3nc(-c4ccc(F)c(C)c4)oc3C)ccc21 (stereo not drawn)")
2
>>> category_label("CCOC(C(=O)O)C1CCc2cc(OCCc3nc(-c4ccccc4)oc3C)ccc21 (stereo not drawn)")
1
>>> category_label("CCC(C(=O)O)C1CCc2cc(OCCc3nc(C4CCCC4)oc3C)ccc21 (stereo not drawn)")
3
>>> category_label("Cc1oc(-c2ccccc2)nc1CCOc1ccc2c(c1)CCC2C(C(=O)O)C(=O)O (stereo not drawn)")
3
>>> category_label("CCC(C(=O)O)C1CCc2cc(OCCc3nc(-c4ccc5c(c4)OCC5)oc3C)ccc21 (stereo not drawn)")
1

Values from ChEMBL document CHEMBL1147759
